Values from PubChem BioAssay AID2305

System: P. falciparum 3D7 growth, pLDH absorbance
Assay: blood-stage malaria parasite growth potency – strain 3D7, dose response (AID 2305)
READOUT_NAME: IC50

INSERT INTO results (compound, readout_name, reported_result) VALUES
  ('Cc1nc(C)c(CC(=O)Nc2ccc(-c3cccc(-c4nc5c(C)cccc5[nH]4)c3)cc2)s1', 'IC50', '600 nM'),
  ('CCN(CCC1(c2ccc(Cl)c(Cl)c2)CN(C(=O)c2cc(OC)c(OC)c(OC)c2)CCO1)[C@@H]1C[C@@H]2c3ccccc3C[C@@H]21 (some centres undefined)', 'IC50', '430 nM'),
  ('CC(C)=CCN1CCC(C(=O)Nc2ccc(-c3nc4ccccc4[nH]3)cc2)CC1', 'IC50', '910 nM'),
  ('Cn1ccc(-c2cccc(Nc3ccnc4cc(-c5nccs5)ccc34)c2)n1', 'IC50', '410 nM');

====

Tested on: P. falciparum 3D7 growth, pLDH absorbance
Assay: blood-stage malaria parasite growth potency – strain 3D7, dose response (AID 2305)
pIC50: −log10 of the molar value.
READOUT_NAME: pIC50

INSERT INTO measurements (compound, readout_name, reported_result) VALUES
  ('COc1cc2nc(N3CCC(C(N)=O)CC3)nc(NCc3ccccc3)c2cc1OC', 'pIC50', 6.05),
  ('c1cc(CNCC2CCCO2)cc(-c2csc(-c3nc4ccccc4[nH]3)c2)c1 (stereo not given)', 'pIC50', 5.98),
  ('O=C(NCCNc1ccnc(NCc2ccc(F)cc2)n1)c1cc2ccccc2s1', 'pIC50', 6.15),
  ('COc1cc(NC(=O)N2CCc3ccc(OCCN4CCCCC4)cc32)cc(C(F)(F)F)c1', 'pIC50', 6.57),
  ('COc1cc([N+](=O)[O-])ccc1NC(=O)Nc1ccc(OC(F)(F)F)cc1', 'pIC50', 5.99),
  ('O=C(NCc1cccc2ccccc12)[C@@H]1CCCN1C(=O)c1ccc(O)c(-c2ccc(Cl)c(Cl)c2)c1', 'pIC50', 6.02),
  ('Cc1ccc(F)c(NC(=O)c2c(-c3c(F)cccc3Cl)noc2C)c1', 'pIC50', 6.03),
  ('COc1cccc(C23N=C(Nc4nc5ccccc5[nH]4)NC2(c2cccc(OC)c2)NC(Nc2nc4ccccc4[nH]2)=N3)c1 (stereo not given)', 'pIC50', 6.80),
  ('CCC1CCCCN1S(=O)(=O)c1ccc(OC)c(N2CCN(C(=O)C(Cl)(Cl)Cl)CC2)c1 (stereo not given)', 'pIC50', 5.95),
  ('COc1ccc(CNCc2ccc(-c3cccc(-c4nc5ccccc5[nH]4)c3)cc2)cc1', 'pIC50', 6.68),
  ('COc1cccc(-c2ccc(O)c(CNCCc3cccc(F)c3)c2)n1', 'pIC50', 6.04),
  ('Cc1ccc(O)c(C(=O)c2cc(C(=O)Nc3ccccc3C)c(=O)n(-c3ccccc3C)c2)c1', 'pIC50', 6.11),
  ('c1ccc2c(NCCCCCCNc3c4ccccc4nc4ccccc34)c3ccccc3nc2c1', 'pIC50', 6.12),
  ('Oc1ccc2ccccc2c1C=NNc1nc(Nc2ccccc2)nc(Nc2ccccc2)n1', 'pIC50', 6.17),
  ('Cc1cc(N[C@@H](CC(C)C)C(=O)NC2CCCC2)nc(NCCc2ccc(F)cc2)n1', 'pIC50', 6.10),
  ('CCCNC(=O)c1ccc(N2CCC(c3ccccc3C)CC2)nc1', 'pIC50', 5.82),
  ('CCc1ccc(CN2CCC(CNC(=O)c3cc(-c4ccccc4F)cs3)C2)cc1 (stereo not given)', 'pIC50', 6.05),
  ('CCOc1cc(Cl)c(C(C)NC(=O)c2cccc(OC)c2)cc1OCC (stereo not given)', 'pIC50', 6.02),
  ('COc1ccc(-c2ccc(NC(=O)c3cccc(C#N)c3)cc2)cc1CN1CCCN(C)CC1', 'pIC50', 6.54),
  ('Cc1cc(N[C@@H](Cc2ccccc2)C(=O)NCc2cccs2)nc(NCCOc2ccccc2)n1', 'pIC50', 5.83),
  ('S=C(Nc1cccc(Cl)c1)NC1CCN(c2ccnc3cc(Cl)ccc23)C1 (stereo not given)', 'pIC50', 6.82),
  ('COc1ccc2nccc([C@@H](O)CN3CCC(NCc4ccc5c(c4)oc(=S)n5C)CC3)c2c1', 'pIC50', 6.72),
  ('CCN(CC)CCNC(=O)c1ccc(NC(=O)c2cc(-c3ccncc3)nc3ccccc23)cc1', 'pIC50', 6.11),
  ('CC(=O)N1N=C(c2ccc(Cl)cc2)Sc2c1nc(C1CCCCC1)n2C(C)=O', 'pIC50', 6.60),
  ('CN=C(NO)NCCN(C)C', 'pIC50', 5.93),
  ('COC(=O)c1cccc(CNCc2cccc(-c3ccc(-c4nc5c(C)cccc5[nH]4)cc3)c2)c1', 'pIC50', 6.49),
  ('COC(=O)c1cccc(CNCc2ccc(-c3ccc(-c4nc5c(C)cccc5[nH]4)s3)cc2)c1', 'pIC50', 6.40),
  ('COc1ccc(CN(C)CCCc2ccc(NC(=O)Cc3ccc4nc(-c5ccccc5)ccc4c3)cc2)cc1OC', 'pIC50', 6.28),
  ('CN1CCC(N(Cc2ccc(-c3cnc(NCc4ccccc4)nc3)cc2)S(=O)(=O)c2ccccc2)CC1', 'pIC50', 6.11),
  ('COc1ccc(N2CCc3c(-c4cccc5cnccc45)cc(C)nc32)c(C)c1', 'pIC50', 6.18),
  ('CN1CCCc2ccc(NC(=O)Nc3ccc(-c4ccccc4)cc3)cc2C1', 'pIC50', 6.42),
  ('O=C(Nc1cccc(-c2csc(-c3ccccc3)n2)c1)c1cccs1', 'pIC50', 6.10),
  ('Cc1ccccc1C1CCN(C2CCC(NC(=O)/C=C/c3ccc(OC(F)(F)F)cc3)CC2)CC1 (stereo not given)', 'pIC50', 6.07),
  ('CS(=O)(=O)c1ccc2c(c1)CCN(CCC1CCC(NC(=O)C(=Cc3ccc(Cl)cc3Cl)c3ccc(-c4ccccc4)cc3)CC1)CC2 (stereo not given)', 'pIC50', 5.93),
  ('C=Cc1ccc(-c2c(C)[nH]c(C)c(Br)c2=O)cc1', 'pIC50', 6.25),
  ('Cc1nc(NCc2ccccc2)cc(NCC(O)c2ccc(O)cc2)n1 (stereo not given)', 'pIC50', 5.91),
  ('CN1CCc2ccc(NC(=O)Nc3ccc(Cl)c(Cl)c3)cc2C1', 'pIC50', 6.14),
  ('CCN(CC)C(=O)C(=O)c1c[nH]c2ccc(Cl)cc12', 'pIC50', 7.10),
  ('Cc1cccc2[nH]c(-c3cccc(-c4cccc(CNCCc5ccncc5)c4)c3)nc12', 'pIC50', 6.85),
  ('CC(CN(C)C)C(=O)Nc1cccc(-c2ccc(-c3nc4ccc(C(F)(F)F)cc4[nH]3)cc2)c1 (stereo not given)', 'pIC50', 6.60);
